System: hepatocarcinoma (HepG2) cells
Test: Proapoptotic effect by flow cytofluorometry, HepG2 cells
Assay type: cell-based
Details: Homo sapiens, 24 hours incubation, three experiments in triplicate, read-out: IC50 ± S.D. (concentration required to cause 50% apoptosis), HepG2
readout_kind: IC50 (nM)
Your answer is read as nM, so omit the unit and give the number.

Query: // lookup IC50 for CCCCCCC[Se]c1ccc(C(=O)CCN2CCN(C)CC2)cc1
Result: 1700

Query: // lookup IC50 for CCCCCC[Se]c1ccc(C(=O)CCN2CCN(C)CC2)cc1
Result: 8100

Query: // lookup IC50 for CCCCCC[Se]c1ccc(C(=O)CCN2CCCCC2)cc1
Result: 12500

Query: // lookup IC50 for CCCCCCC[Se]c1ccc(C(=O)CCN2CCCCC2)cc1
Result: 1740

Query: // lookup IC50 for CCCCCCCSc1ccc(C(=O)CCN2CCN(C)CC2)cc1
Result: 500

Query: // lookup IC50 for CCCCC[Se]c1ccc(C(=O)CCN2CCOCC2)cc1
Result: 11100

Query: // lookup IC50 for CCCCCCOc1ccc(C(=O)CCN2CCOCC2)cc1
Result: 1670

Query: // lookup IC50 for CCCCCCCOc1ccc(C(=O)CCN2CCN(C)CC2)cc1
Result: 1600

Query: // lookup IC50 for CCCCCCCSc1ccc(C(=O)CCN2CCCCC2)cc1
Result: 590

Query: // lookup IC50 for CCCCC[Se]c1ccc(C(=O)CCN2CCN(C)CC2)cc1
Result: 15600

* * *

Task for the reader: assign each of the following molecules its reported log10(IC50).
Test system: hepatocarcinoma (HUH7.5) cells
Assay: Proapoptotic effect by flow cytofluorometry, HUH7.5 cells
Assay type: cell-based
Conditions: Homo sapiens, 24 hours incubation, three experiments in triplicate, read-out: IC50 ± S.D. (concentration required to cause 50% apoptosis), HUH7.5
Remember, log10 of IC50, in nM.

Query: Entry CCCCC[Se]c1ccc(C(=O)CCN2CCCCC2)cc1 , system hepatocarcinoma (HUH7.5) cells: what log10(IC50) was measured?
Result: 3.92

Query: Entry CCCCCCC[Se]c1ccc(C(=O)CCN2CCOCC2)cc1 , system hepatocarcinoma (HUH7.5) cells: what log10(IC50) was measured?
Result: 2.70

Query: Entry CCCCCCSc1ccc(C(=O)CCN2CCN(C)CC2)cc1 , system hepatocarcinoma (HUH7.5) cells: what log10(IC50) was measured?
Result: 2.78

Query: Entry CCCCCCOc1ccc(C(=O)CCN2CCCCC2)cc1 , system hepatocarcinoma (HUH7.5) cells: what log10(IC50) was measured?
Result: 3.44

Query: Entry CCCCCC[Se]c1ccc(C(=O)CCN2CCN(C)CC2)cc1 , system hepatocarcinoma (HUH7.5) cells: what log10(IC50) was measured?
Result: 3.90

Query: Entry CCCCCCCSc1ccc(C(=O)CCN2CCCCC2)cc1 , system hepatocarcinoma (HUH7.5) cells: what log10(IC50) was measured?
Result: 2.69

Query: Entry CCCCCCC[Se]c1ccc(C(=O)CCN2CCN(C)CC2)cc1 , system hepatocarcinoma (HUH7.5) cells: what log10(IC50) was measured?
Result: 3.23

Query: Entry CCCCCCSc1ccc(C(=O)CCN2CCOCC2)cc1 , system hepatocarcinoma (HUH7.5) cells: what log10(IC50) was measured?
Result: 2.75

Query: Entry CCCCCC[Se]c1ccc(C(=O)CCN2CCOCC2)cc1 , system hepatocarcinoma (HUH7.5) cells: what log10(IC50) was measured?
Result: 3.41

Query: Entry CCCCCCCSc1ccc(C(=O)CCN2CCN(C)CC2)cc1 , system hepatocarcinoma (HUH7.5) cells: what log10(IC50) was measured?
Result: 2.72

Query: Entry CCCCCCCOc1ccc(C(=O)CCN2CCN(C)CC2)cc1 , system hepatocarcinoma (HUH7.5) cells: what log10(IC50) was measured?
Result: 3.21

Query: Entry CCCCCCOc1ccc(C(=O)CCN2CCOCC2)cc1 , system hepatocarcinoma (HUH7.5) cells: what log10(IC50) was measured?
Result: 3.20

Query: Entry CCCCCCCOc1ccc(C(=O)CCN2CCCCC2)cc1 , system hepatocarcinoma (HUH7.5) cells: what log10(IC50) was measured?
Result: 3.44

Query: Entry CCCCCCC[Se]c1ccc(C(=O)CCN2CCCCC2)cc1 , system hepatocarcinoma (HUH7.5) cells: what log10(IC50) was measured?
Result: 3.24

Query: Entry CCCCC[Se]c1ccc(C(=O)CCN2CCN(C)CC2)cc1 , system hepatocarcinoma (HUH7.5) cells: what log10(IC50) was measured?
Result: 4.13

Query: Entry CCCCCCCc1ccc(C(=O)CCN2CCCCC2)cc1 , system hepatocarcinoma (HUH7.5) cells: what log10(IC50) was measured?
Result: 3.18
